# Target under test: HLA-B*08:01
# Experiment description: IEDB peptide-MHC binding, purified MHC/competitive/radioactivity; filed as Kd, often an IC50 or EC50 that approximates it; bounds were set here for any values at or beyond the usual limits of such assays
# Conditions used: source organism: Vaccinia virus Copenhagen
Observation type: pKd
Convention used: pKd is expressed as -log10 of the molar concentration.

{"columns": ["Sequence text", "Target under test", "pKd"],
 "data": [
  ["IHFMREYWF", "HLA-B*08:01", 5.09],
  ["MMRNRTKPI", "HLA-B*08:01", 8.83]
]}

Next sequence, please.
### Prompt Item FFKCFRYVF : provide pKd
### Response 7.96

* * *

# Target under test: HLA-A*30:02
# Experiment description: IEDB peptide-MHC binding, purified MHC/competitive/fluorescence; filed as Kd, often an IC50 or EC50 that approximates it; bounds were set here for any values at or beyond the usual limits of such assays
# Conditions used: source organism: Mycobacterium tuberculosis variant bovis BCG str. Pasteur 1173P2
pKd: −log10 of the molar value.
Observation type: pKd

### Prompt Answer with the recorded pKd for the sequence listed here: RVACRDVEV
### Response ≤ 5.30

* * *

# Target under test: HLA-A*02:01
# Experiment description: IEDB peptide-MHC binding, purified MHC/direct/fluorescence; filed as Kd, often an IC50 or EC50 that approximates it; bounds were set here for any values at or beyond the usual limits of such assays
# Conditions used: source organism: Camelpox virus M-96
Observation type: Kd

### Prompt Report Kd for EYYFRNEVF
### Response ≥ 20 µM

* * *

# Target under test: HLA-B*08:01
# Experiment description: IEDB peptide-MHC binding, purified MHC/direct/fluorescence; filed as Kd, often an IC50 or EC50 that approximates it; bounds were set here for any values at or beyond the usual limits of such assays
# Conditions used: source organism: Coxiella burnetii Q321
pKd: −log10 of the molar value.
Observation type: pKd

### Prompt Give HLA-B*08:01 pKd for the following sequence: HEGDIVPLF
### Response ≤ 4.70

* * *

# Target under test: HLA-A*69:01
# Experiment description: IEDB peptide-MHC binding, purified MHC/direct/fluorescence; filed as Kd, often an IC50 or EC50 that approximates it; bounds were set here for any values at or beyond the usual limits of such assays
# Conditions used: source organism: Vibrio vulnificus YJ016
pKd: −log10 of the molar value.
Observation type: pKd

### Prompt Identify the reported pKd for the following entry. MKYVWPPIM
### Response ≤ 4.70

* * *

# Target under test: HLA-B*27:03
# Experiment description: IEDB peptide-MHC binding, purified MHC/direct/fluorescence; filed as Kd, often an IC50 or EC50 that approximates it; bounds were set here for any values at or beyond the usual limits of such assays
# Conditions used: source organism: Vibrio vulnificus YJ016
Observation type: Kd

### Prompt Using known records, supply Kd for MKYVWPPIM
### Response ≥ 20 µM

* * *

# Target under test: HLA-A*02:01
# Experiment description: IEDB peptide-MHC binding, purified MHC/competitive/fluorescence; filed as Kd, often an IC50 or EC50 that approximates it; bounds were set here for any values at or beyond the usual limits of such assays
# Conditions used: source organism: Bacillus anthracis str. A2012
pKd: −log10 of the molar value.
Observation type: pKd

### Prompt Quote pKd reported for KKNHWFILK please.
### Response ≤ 4.70

* * *

# Target under test: HLA-A*02:12
# Experiment description: IEDB peptide-MHC binding, purified MHC/direct/fluorescence; filed as Kd, often an IC50 or EC50 that approximates it; bounds were set here for any values at or beyond the usual limits of such assays
# Conditions used: source organism: Reston ebolavirus
pKd: −log10 of the molar value.
Observation type: pKd

### Prompt Item WFQRIPLQW : provide pKd
### Response ≤ 4.70

* * *

# Target under test: HLA-A*69:01
# Experiment description: IEDB peptide-MHC binding, purified MHC/direct/fluorescence; filed as Kd, often an IC50 or EC50 that approximates it; bounds were set here for any values at or beyond the usual limits of such assays
# Conditions used: source organism: Camelpox virus M-96
pKd: −log10 of the molar value.
Observation type: pKd

### Prompt Give reported pKd value for EYYFRNEVF
### Response ≤ 4.70

* * *

# Target under test: HLA-A*02:06
# Experiment description: IEDB peptide-MHC binding, purified MHC/competitive/fluorescence; filed as Kd, often an IC50 or EC50 that approximates it; bounds were set here for any values at or beyond the usual limits of such assays
# Conditions used: source organism: Yersinia pestis Nepal516
Observation type: Kd (nM)
// units = nM; emit number, no label

### Prompt Find the measured Kd of RQPLNIQAI and report it.
### Response 59.2

* * *

# Target under test: HLA-B*07:02
# Experiment description: IEDB peptide-MHC binding, purified MHC/direct/fluorescence; filed as Kd, often an IC50 or EC50 that approximates it; bounds were set here for any values at or beyond the usual limits of such assays
# Conditions used: source organism: Corynebacterium efficiens
Observation type: Kd

### Prompt Give recorded Kd. KLGDQFGRK
### Response ≥ 20 µM

* * *

# Target under test: HLA-B*07:02
# Experiment description: IEDB peptide-MHC binding, purified MHC/competitive/fluorescence; bounds were set here for any values at or beyond the usual limits of such assays
# Conditions used: source organism: Homo sapiens
Observation type: IC50

### Prompt System HLA-B*07:02. Read-out IC50. Item MVRVLTVIKEY . Report value.
### Response ≥ 20 µM

* * *

# Target under test: HLA-A*03:01
# Experiment description: IEDB peptide-MHC binding, purified MHC/competitive/radioactivity; filed as Kd, often an IC50 or EC50 that approximates it; bounds were set here for any values at or beyond the usual limits of such assays
# Conditions used: source organism: Dengue virus 3 Martinique/1243/1999
Observation type: Kd (nM)
Give the number; nM is assumed, so skip it.

### Prompt Determine its reported Kd: GLYGNGVVTK
### Response 3.65

* * *

# Target under test: HLA-B*07:02
# Experiment description: IEDB peptide-MHC binding, purified MHC/direct/fluorescence; filed as Kd, often an IC50 or EC50 that approximates it; bounds were set here for any values at or beyond the usual limits of such assays
# Conditions used: source organism: Mycobacterium tuberculosis variant bovis BCG str. Pasteur 1173P2
Observation type: Kd (nM)
The reply should contain only the number, in nM.

### Prompt Find the measured Kd of WPVLGSEVL and report it.
### Response 223

* * *

# Target under test: HLA-A*02:01
# Experiment description: IEDB peptide-MHC binding, purified MHC/direct/fluorescence; filed as Kd, often an IC50 or EC50 that approximates it; bounds were set here for any values at or beyond the usual limits of such assays
# Conditions used: source organism: Amur virus
Observation type: Kd

### Prompt Let me know recorded Kd for SLTECPTFL , thanks.
### Response ≤ 1 nM

* * *

# Target under test: HLA-B*57:01
# Experiment description: IEDB peptide-MHC binding, purified MHC/direct/fluorescence; filed as Kd, often an IC50 or EC50 that approximates it; bounds were set here for any values at or beyond the usual limits of such assays
# Conditions used: source organism: Brucella abortus
Observation type: Kd

### Prompt Using the record for RFRCVGPAP , state its measured Kd.
### Response ≥ 20 µM

* * *

# Target under test: HLA-B*58:01
# Experiment description: IEDB peptide-MHC binding, purified MHC/direct/fluorescence; filed as Kd, often an IC50 or EC50 that approximates it; bounds were set here for any values at or beyond the usual limits of such assays
# Conditions used: source organism: Homo sapiens
Observation type: Kd (nM)
Quick note: give the figure in nM, leave out the unit.

### Prompt Item YPAEITLTW : provide Kd
### Response 55

* * *

# Target under test: HLA-C*12:03
# Experiment description: IEDB peptide-MHC binding, purified MHC/direct/fluorescence; filed as Kd, often an IC50 or EC50 that approximates it; bounds were set here for any values at or beyond the usual limits of such assays
# Conditions used: source organism: Burkholderia mallei SAVP1
Observation type: pKd
On this scale, pKd is minus log10 of a concentration expressed in M (mol/L).

### Prompt Would you please give the reported pKd of YMKAPSGAL with HLA-C*12:03?
### Response 8.30

* * *

# Target under test: HLA-A*03:01
# Experiment description: IEDB peptide-MHC binding, purified MHC/direct/fluorescence; filed as Kd, often an IC50 or EC50 that approximates it; bounds were set here for any values at or beyond the usual limits of such assays
# Conditions used: source organism: Camelpox virus CMS
Observation type: Kd

### Prompt Under HLA-A*03:01: report Kd of VIARTHTAL .
### Response ≥ 20 µM

* * *

# Target under test: HLA-A*02:03
# Experiment description: IEDB peptide-MHC binding, purified MHC/competitive/radioactivity; filed as Kd, often an IC50 or EC50 that approximates it; bounds were set here for any values at or beyond the usual limits of such assays
# Conditions used: source organism: Vaccinia virus WR
Observation type: pKd
Entry type: numeric. Quantity: pKd, the -log10 of concentration in molar units.

Example results:
{"columns": ["Sequence text", "pKd"],
 "data": [
  ["YLSKEDRIIT", 5.25],
  ["MVEYLENQL", 5.19],
  ["YVHSLLYSSM", 5.17]
]}

### Prompt Please report pKd for the following sequence: HQRRLVKLL
### Response 5.77

### Prompt Fill in pKd for record IASGQRCHFI
### Response 5.08

### Prompt Given the sequence LIVILFIMFM , write its reported pKd.
### Response 6.36

### Prompt Provide one value: measured pKd of MLKLFTHDIM
### Response 7.03

### Prompt Please list pKd recorded for the sequence ALVSDCAST
### Response 7.51

### Prompt Provide measured pKd value, entry: DQLVFNSISA
### Response 6.54

### Prompt Tell me pKd reported for ISIIVLFQR
### Response 5.04

### Prompt Give pKd for ELAYYNSCML
### Response 6.82

### Prompt Provide only the value of recorded pKd for FIASAPQQL
### Response 8.36
